- System: IGROV1 ovarian
- assay-remarks: NCI-60 one-dose screen, 48 h (100 = growth as untreated, 0 = no growth, -100 = all killed)
- measurement-parameters: 10 µM
About 83,000 compounds went through this panel and 20% of them were active in at least one assay; those are over-represented in the sample as a whole.
Form field: growth (one value per entry).
A number alone suffices; assume %.

Guide cases for growth, answers given:
input: Which value of growth has been reported for CC(=O)Nc1cc(C)ccc1C in the records?
output: 108

input: Suppose we examine the compound CC1=CC(C)=Nc2ccc(Cl)cc2N1 ; what growth value has been reported?
output: 103

input: So what's the measured growth for this one? Cc1nc(N=C(N)N)nc2ccc3ccccc3c12
output: 7.89

input: Quick one: growth for CSC1SCC2C(=O)N(C)C(C(C)C)C(=O)OCC(NC(=O)c3cnc4ccccc4n3)C(=O)NC(C)C(=O)N(C)C1C(=O)N(C)C(C(C)C)C(=O)OCC(NC(=O)c1cnc3ccccc3n1)C(=O)NC(C)C(=O)N2C (centres undefined) ?
output: 0.149

input: Which measured growth value corresponds to CCC(C)(C)c1cc(O)c(C(C)(C)CC)cc1O ?
output: 64.8

---
input: Endpoint output: growth of Clc1cc(Cl)c(Cl)nn1 . Value?
output: 107

input: What does the record list as growth for COC(=O)C1C(O)C(C)C(O)C(C)C=C(C)C2=C3C(=C(C)C(=O)c4c(O)c(c(C)c(OC(C)=O)c43)NC(=O)C(C)=C/C=C\C(C)C(O)C(C)C1O)OCO2 (centres undefined) ?
output: 163

input: Record request: growth value, item CS(=O)(=O)OC1CC(n2ccc(=O)[nH]c2=O)OC1COC(c1ccccc1)(c1ccccc1)c1ccccc1 (centres undefined)
output: 92

input: What does the data say about its growth? Entry: Nc1nc(=S)c2ncn(C3OC(CO)C(O)C3O)c2[nH]1 (centres undefined)
output: 108
